I'd be grateful if you could share measured self-aminoacylation for these entries.
tested on: biotinyl-Leu-oxazolone; assay: self-aminoacylation, catalytic enhancement (BLO) (fold over background); higher = more active; k-Seq, kA / k0A0; sequences stand for … in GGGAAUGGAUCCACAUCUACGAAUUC…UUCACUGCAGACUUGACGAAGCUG
Fewer inactive variants are shown than the library holds.
Format: numeric value only, no unit, no commentary.

Query :: Look up self-aminoacylation for this sequence: CUACUUCACACAGUCGGUCUG [Fam1A.1 aminoacylation ribozyme variant]
Result :: 0.682

Query :: Any idea what its self-aminoacylation is? The sequence is AUUGCCCUGGUCACCGAGUGA [Fam2.1 aminoacylation ribozyme variant]
Result :: 10.8

Query :: Tell me the measured self-aminoacylation of AUUCACCUAGGUCUUCUGGUG [Fam2.2 aminoacylation ribozyme variant] , please.
Result :: 9.28

Query :: Requested field: self-aminoacylation. Item: CUACUUCAAGCAAUCGCUCUG [Fam1A.1 aminoacylation ribozyme variant]
Result :: 1.28

----------
test system: biotinyl-Val-oxazolone; experiment: self-aminoacylation, catalytic enhancement (BVO) (fold over background); higher = more active; k-Seq, kA / k0A0; sequences stand for … in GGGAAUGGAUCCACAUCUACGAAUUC…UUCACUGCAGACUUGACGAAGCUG
Fewer inactive variants are shown than the library holds.
Measurement label: self-aminoacylation
Answer with a number only.

Query :: Give the measured self-aminoacylation of CCACACUUCAAGCACUCGGUC [Fam1B.1 aminoacylation ribozyme variant] .
Result :: 0.996

Query :: Sample CUCCUUCAUACAAUCGGUCUG [Fam1A.1 aminoacylation ribozyme variant] — what was its self-aminoacylation?
Result :: 0.664

Query :: Requested field: self-aminoacylation. Item: AUUACCCUGUCCAUCGAGUGA [Fam2.1 aminoacylation ribozyme variant]
Result :: 5.38

Query :: GET /values?readout=self-aminoacylation&item= AUUACCCGGGUCAUCGAGCGA [Fam2.1 aminoacylation ribozyme variant]
Result :: 2.18

Query :: Can you look up the measured self-aminoacylation of CCACACUUCCAGCAAUCGGCC [Fam1B.1 aminoacylation ribozyme variant] for me?
Result :: 4.01

Query :: State the recorded self-aminoacylation for this entry: CUAGUCCAAACAAUCGGUCUG [Fam1A.1 aminoacylation ribozyme variant]
Result :: 0.767

Query :: What self-aminoacylation value was documented for this sequence, CUACUUCGAACAAUCGGUCGG [Fam1A.1 aminoacylation ribozyme variant] ?
Result :: 0.922

Query :: What does the record list as self-aminoacylation for CCACACUUCAAGCAAUCUAUC [Fam1B.1 aminoacylation ribozyme variant] ?
Result :: 0.683

Query :: Requested field: self-aminoacylation. Item: AUUGGCCUAGGUCAUCGGGUG [Fam2.2 aminoacylation ribozyme variant]
Result :: 14.9

Query :: self-aminoacylation lookup needed for CCGCACUUCAAGCAAUCGGAC [Fam1B.1 aminoacylation ribozyme variant] , thanks.
Result :: 1.12

Query :: // lookup self-aminoacylation for CUACUUCAAGCAAUCGGUUUG [Fam1A.1 aminoacylation ribozyme variant]
Result :: 1.03

Query :: Fill in: self-aminoacylation of GCACACUUCAAGCGAUCGGUC [Fam1B.1 aminoacylation ribozyme variant] is ___
Result :: 1.82

Query :: self-aminoacylation lookup needed for AAGUUCGCUAAUAGUCGCAGG [Fam3.1 aminoacylation ribozyme variant] , thanks.
Result :: 1.89

Query :: // query self-aminoacylation value for entry AUGCACCUAGGUAAUCGGGUG [Fam2.2 aminoacylation ribozyme variant]
Result :: 1.94

Query :: Find the recorded self-aminoacylation belonging to UUGUUUGCUAAUAGUCGCAAG [Fam3.1 aminoacylation ribozyme variant] and report it.
Result :: 1.42

Query :: Query: self-aminoacylation; subject: AUUCUCCUAGGUCAUCGCGUG [Fam2.2 aminoacylation ribozyme variant]
Result :: 12.2

Query :: Looking for the measured self-aminoacylation of AAGUUUGCUAAUAGCCGUAAG [Fam3.1 aminoacylation ribozyme variant] , can you help?
Result :: 1.36

Query :: Need self-aminoacylation of CUACUUCAAACACUCGGUGUG [Fam1A.1 aminoacylation ribozyme variant] , thanks.
Result :: 1.59

All figures here come from the supplement of paper PMC9233669.
